- System: PBMC
- Measurement Protocol: Cytotoxicity against human PBMC assessed as growth inhibition by CellTiter 96 non-radioactive cell proliferation colorimetric assay
- Type: cell-based
The entries below are paired with their reported CC50.
Outcome Measure: CC50 (µM)

>  <Compound>
CC1(C)CC(=O)c2c(Cc3ccc(F)cc3Cl)nc(-c3ccncc3)nc2C1

>  <Outcome Measure>
CC50

>  <Qualifier Symbol>
>

>  <Result>
100

$$$$
>  <Compound>
CC1=C(Cl)C(c2ccc(F)cc2Cl)N=C(c2ccccn2)N1 (stereo not given)

>  <Outcome Measure>
CC50

>  <Qualifier Symbol>
>

>  <Result>
100

$$$$
>  <Compound>
Fc1ccc(C2N=C(c3nccs3)NC(CN3CCOCC3)=C2I)c(Br)c1 (stereo not given)

>  <Outcome Measure>
CC50

>  <Qualifier Symbol>
=

>  <Result>
75

$$$$
>  <Compound>
CCCC[n+]1ccn(CC2=C(C(=O)OC)C(c3ccc(F)cc3Cl)N=C(c3ccccn3)N2)c1 (stereo not given)

>  <Outcome Measure>
CC50

>  <Qualifier Symbol>
=

>  <Result>
20

$$$$
>  <Compound>
CCOP(=O)(CC1=C(C(=O)OC)C(c2ccc(F)cc2Cl)N=C(c2ccccn2)N1)OCC (stereo not given)

>  <Outcome Measure>
CC50

>  <Qualifier Symbol>
=

>  <Result>
65

$$$$
>  <Compound>
COC(=O)C1=C(C)NC(c2ccccn2)=NC1Cc1ccccc1 (stereo not given)

>  <Outcome Measure>
CC50

>  <Qualifier Symbol>
=

>  <Result>
52

$$$$
>  <Compound>
COC(=O)c1c(Cc2ccc(F)cc2Cl)nc(-c2ccccn2)nc1CN1CCOCC1

>  <Outcome Measure>
CC50

>  <Qualifier Symbol>
=

>  <Result>
34

$$$$
>  <Compound>
CC1=C(Br)C(c2ccc(F)cc2Cl)N=C(c2ccccn2)N1 (stereo not given)

>  <Outcome Measure>
CC50

>  <Qualifier Symbol>
>

>  <Result>
100

$$$$
>  <Compound>
Fc1ccc(C2N=C(c3ccccn3)NC(CN3CCOCC3)=C2I)c(Cl)c1 (stereo not given)

>  <Outcome Measure>
CC50

>  <Qualifier Symbol>
>

>  <Result>
100

$$$$
>  <Compound>
COC(=O)C1=C(CSc2ccccc2)NC(c2ccccn2)=NC1Cc1ccccc1 (stereo not given)

>  <Outcome Measure>
CC50

>  <Qualifier Symbol>
>

>  <Result>
100

$$$$
